Molecular target: UniProtKB Q9NWZ3
Sequence (Q9NWZ3 whole entry): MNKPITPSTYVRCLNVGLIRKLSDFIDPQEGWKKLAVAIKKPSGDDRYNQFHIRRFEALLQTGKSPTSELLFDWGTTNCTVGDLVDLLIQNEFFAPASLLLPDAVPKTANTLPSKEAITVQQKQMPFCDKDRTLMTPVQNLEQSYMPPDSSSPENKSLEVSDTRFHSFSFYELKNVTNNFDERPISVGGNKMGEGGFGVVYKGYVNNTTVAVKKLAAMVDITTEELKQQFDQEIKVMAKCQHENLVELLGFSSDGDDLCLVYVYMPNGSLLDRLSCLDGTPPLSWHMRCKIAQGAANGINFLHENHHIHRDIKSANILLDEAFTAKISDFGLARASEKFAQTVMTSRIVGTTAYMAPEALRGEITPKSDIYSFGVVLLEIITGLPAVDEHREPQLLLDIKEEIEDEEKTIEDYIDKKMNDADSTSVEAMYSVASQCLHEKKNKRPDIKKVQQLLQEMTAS
Experiment: IRAK4 kinase inhibition, Transcreener fluorescence polarization ADP assay
Details: recombinant full-length His6-IRAK4; 125 uM ATP; 90 min; Ki computed using ATP Km 642 uM
pKi: −log10 of the molar value.
Quick reference: pKi of the listed items.

COMPOUND: CC1(CO)Cc2cc(NC(=O)c3cnn4cccnc34)c(N3CC4C(CO)C4C3)cc2O1 (stereo not shown) [Example 322]
TARGET_OF_ASSAY: UniProtKB Q9NWZ3
pKi: 7.46
//
COMPOUND: O=C(Nc1cc2c(cc1N1CCOCC1)C(=O)N([C@H]1CCC[C@H]1CO)C2)c1cnn2cccnc12 [Example 564]
TARGET_OF_ASSAY: UniProtKB Q9NWZ3
pKi: 7.55
//
COMPOUND: O=C(Nc1cc2c(cc1N1CCOCC1)S(=O)(=O)CCN2)c1cnn2cccnc12 [Example 402]
TARGET_OF_ASSAY: UniProtKB Q9NWZ3
pKi: 7.72
//
COMPOUND: C[C@@]1(CO)Cc2cc(NC(=O)c3cnn4cccnc34)c(N3CCC(CO)CC3)cc2O1 [Example 130]
TARGET_OF_ASSAY: UniProtKB Q9NWZ3
pKi: 8.48
//
COMPOUND: CC(C)C1(C)Cc2cc(NC(=O)c3cnn4cccnc34)c(N3CCOCC3)cc2O1 (stereo not shown) [Example 150]
TARGET_OF_ASSAY: UniProtKB Q9NWZ3
pKi: 7.05
//
COMPOUND: Cn1cc(-c2cc3c(cc2NC(=O)c2cnn4cccnc24)CC(C)(C)O3)cn1 [Example 404]
TARGET_OF_ASSAY: UniProtKB Q9NWZ3
pKi: 7.19
//
COMPOUND: C[C@]1(CO)CCc2cc(NC(=O)c3cnn4cccnc34)c(N3CCOCC3)cc2O1 (single isomer, unassigned) [Example 437]
TARGET_OF_ASSAY: UniProtKB Q9NWZ3
pKi: 7.85
//
COMPOUND: C[C@]1(COC(F)F)Cc2cc(NC(=O)c3cnn4cccnc34)c(N3CCOCC3)cc2O1 [Example 155]
TARGET_OF_ASSAY: UniProtKB Q9NWZ3
pKi: 7.66
//
COMPOUND: CC1(C)Cc2cc(NC(=O)c3cnn4cccnc34)c(N3CCC(n4ccnc4)CC3)cc2O1 [Example 206]
TARGET_OF_ASSAY: UniProtKB Q9NWZ3
pKi: 8.47
//
COMPOUND: CC1(C)Cc2cc(NC(=O)c3cnn4cccnc34)c(OC3CN(CCO)C3)cc2O1 [Example 446]
TARGET_OF_ASSAY: UniProtKB Q9NWZ3
pKi: 7.28
//
COMPOUND: CC1(C)Cc2cc(NC(=O)c3cnn4cccnc34)c(C3CCNCC3)cc2O1 [Example 62]
TARGET_OF_ASSAY: UniProtKB Q9NWZ3
pKi: 6.59
//
COMPOUND: CC(C)(O)[C@H](F)CN1Cc2cc(NC(=O)c3cnn4cccnc34)c(N3CCC3)cc2C1=O [Example 563]
TARGET_OF_ASSAY: UniProtKB Q9NWZ3
pKi: 7.48
//
COMPOUND: O=C(Nc1cc2c(cc1N1CCOCC1)OC1(CCOCC1)C2)c1cnn2cccnc12 [Example 39]
TARGET_OF_ASSAY: UniProtKB Q9NWZ3
pKi: 7.96
//
COMPOUND: CC1(C)Cc2cc(NC(=O)c3cnn4cccnc34)c(N3CC4(CCCOC4)C3)cc2O1 [Example 194]
TARGET_OF_ASSAY: UniProtKB Q9NWZ3
pKi: 6.39
//
COMPOUND: CC1(O)COc2cc(N3CCC(C(C)(O)C(F)(F)F)CC3)c(NC(=O)c3cnn4cccnc34)cc2C1 (stereo not shown) [Example 423]
TARGET_OF_ASSAY: UniProtKB Q9NWZ3
pKi: 8.02
//
COMPOUND: CNC(=O)[C@]1(C)Cc2cc(NC(=O)c3cnn4cccnc34)c(N3CCOCC3)cc2O1 [Example 48]
TARGET_OF_ASSAY: UniProtKB Q9NWZ3
pKi: 6.72
//
COMPOUND: Cn1cncc1CN1CCN(c2cc3c(cc2NC(=O)c2cnn4cccnc24)CC(C)(C)O3)CC1 [Example 506]
TARGET_OF_ASSAY: UniProtKB Q9NWZ3
pKi: 8.29
//
COMPOUND: CC1(C)Cc2cc(NC(=O)c3cnn4cccnc34)c(N3CCCC(c4ncc[nH]4)C3)cc2O1 (stereo not shown) [Example 202]
TARGET_OF_ASSAY: UniProtKB Q9NWZ3
pKi: 6.16
//
COMPOUND: CC1(C)Cc2cc(NC(=O)c3cnn4cccnc34)c(N3CCC(c4cc[nH]n4)C3)cc2O1 (stereo not shown) [Example 192]
TARGET_OF_ASSAY: UniProtKB Q9NWZ3
pKi: 7.36
//
COMPOUND: Cc1nccc(C2CCN(c3cc4c(cc3NC(=O)c3cnn5cccnc35)CC(C)(C)O4)C2)n1 (stereo not shown) [Example 229]
TARGET_OF_ASSAY: UniProtKB Q9NWZ3
pKi: 6.59
//
COMPOUND: CC1(C)Cc2cc(NC(=O)c3cnn4cccnc34)c(N3CC(O)C(F)(F)C3)cc2O1 (stereo not shown) [Example 68]
TARGET_OF_ASSAY: UniProtKB Q9NWZ3
pKi: 8.01
//
COMPOUND: CC1(C)Cc2cc(NC(=O)c3cnn4cccnc34)c(N3CC[C@@]4(CCOC4)C3)cc2O1 (single isomer, unassigned) [Example 222]
TARGET_OF_ASSAY: UniProtKB Q9NWZ3
pKi: 7.03
//
COMPOUND: Cn1cc(COc2cc3c(cc2NC(=O)c2cnn4cccnc24)C[C@](C)(O)CO3)cn1 [Example 431]
TARGET_OF_ASSAY: UniProtKB Q9NWZ3
pKi: 7.70
//
COMPOUND: C[C@@]1(CO)Cc2cc(NC(=O)c3cnn4cccnc34)c(N3CCC([C@](C)(O)C(F)(F)F)CC3)cc2O1 [Example 412]
TARGET_OF_ASSAY: UniProtKB Q9NWZ3
pKi: 8.23
//
COMPOUND: CCC(=O)C1CCN(c2cc3c(cc2NC(=O)c2cnn4cccnc24)CC(C)(CO)O3)CC1 (stereo not shown) [Example 343]
TARGET_OF_ASSAY: UniProtKB Q9NWZ3
pKi: 8.30
//
COMPOUND: CNC(=O)CC1CCN(c2cc3c(cc2NC(=O)c2cnn4cccnc24)CC(C)(C)O3)CC1 [Example 183]
TARGET_OF_ASSAY: UniProtKB Q9NWZ3
pKi: 8.29
//
COMPOUND: O=C(Nc1cc2c(cc1N1CCC(CO)CC1)C(=O)N(CC(F)(F)F)C2)c1cnn2cccnc12 [Example 263]
TARGET_OF_ASSAY: UniProtKB Q9NWZ3
pKi: 8.10
//
COMPOUND: CN(C)C(=O)[C@]1(C)Cc2cc(NC(=O)c3cnn4cccnc34)c(N3CCOCC3)cc2O1 [Example 438]
TARGET_OF_ASSAY: UniProtKB Q9NWZ3
pKi: 7.26
//
COMPOUND: CC1(C)Cc2cc(NC(=O)c3cnn4cccnc34)c(C3CCN(CC(F)F)CC3)cc2O1 [Example 89]
TARGET_OF_ASSAY: UniProtKB Q9NWZ3
pKi: 7.59
//
COMPOUND: C[C@]1(CO)Cc2cc(NC(=O)c3cnn4cccnc34)c(N3CCC4(CC3)CNC4=O)cc2O1 [Example 320]
TARGET_OF_ASSAY: UniProtKB Q9NWZ3
pKi: 8.34
//
COMPOUND: CN1CCC2(CC1)Cc1cc(NC(=O)c3cnn4cccnc34)c(N3CCN(CC(N)=O)CC3)cc1O2 [Example 373]
TARGET_OF_ASSAY: UniProtKB Q9NWZ3
pKi: 8.77
